- Tgt: Plasmodium falciparum protein kinase 6 (PK6, PF3D7_1337100)
- Protocol: PfPK6 kinase inhibitors, biochemical, TCAMS library (AID 1159586)
- Measurement parameters: recombinant PfPK6, Kinase-Glo ATP depletion luminescence
Potency and affinity values are given separately. The source made the active and inactive calls. The rule behind the calls is not given here.
Readout name: outcome

>>> experimental_result("Fc1ccc2nc(-c3cccc(-c4ccc(CN5CCN(CCN6CCOCC6)CC5)cc4)c3)[nH]c2c1")
"inactive"
>>> experimental_result("CC(C)(C)OC(=O)N[C@@H](CS(=O)(=O)CCN=C(N)COCc1ccccc1)C(=O)OC(C)(C)C")
"inactive"
>>> experimental_result("CS(=O)(=O)c1ccc2c(c1)CCN(CCC1CCC(NC(=O)C(=Cc3cccc(C#N)c3)c3ccc(-c4ccccc4)cc3)CC1)CC2 (centres undefined)")
"inactive"
>>> experimental_result("CCN(CC)c1ccc2nc(N)nc(N)c2c1")
"inactive"
>>> experimental_result("Nc1ncc(-c2ccc(S(=O)(=O)Nc3ccc(C(=O)N[C@@H](CCC(=O)O)C(=O)O)cc3)cc2)c(=O)[nH]1")
"inactive"
>>> experimental_result("Fc1ccccc1C=NNc1ccnc2cc(Cl)ccc12")
"inactive"
>>> experimental_result("COc1cccc(C(=O)NC(C=Cc2ccccc2)c2cc(Cl)c3cccnc3c2O)c1 (centres undefined)")
"inactive"
>>> experimental_result("c1ccc2sc(-c3csc(Nc4ccncc4)n3)nc2c1")
"inactive"
>>> experimental_result("CC(C)(CN)c1cc(-c2ccc(Cl)c(O)c2)c(-c2ccncc2)o1")
"inactive"

----------
- Protocol: sensitizers of A549 cells to miR-34 induction, primary screen, imaging, A549 dox-inducible miR-34, nuclei and caspase counts (AID 1347080)
- Measurement parameters: A549 miR-34 inducible, Hoechst nuclei count, 48 h; stronger effect = lower value; cell number ratio, induced over uninduced
// NB: equality with 0.9 counts as condition not met; only fold change strictly below is condition met

>>> qualitative_label("O=C1/C(=C/c2cccs2)CCC/C1=C\\c1cccs1")
"condition not met"
>>> qualitative_label("CC(=O)OCC(=O)[C@@]1(O)CCC2C3CCC4=CC(=O)C=CC4(C)C3[C@@H](O)C[C@@]21C (stereo not given in full)")
"condition met"
>>> qualitative_label("CC(=O)[C@@]12O[C@](C)(c3ccccc3)O[C@@H]1CC1C3CCC4=CC(=O)CC[C@]4(C)C3CC[C@@]12C (stereo not given in full)")
"condition met"
>>> qualitative_label("C=C[C@H]1CN2CC[C@H]1C[C@@H]2[C@H](O)c1ccnc2ccc(OC)cc12")
"condition not met"
>>> qualitative_label("CCN1CCN(C(=O)NC(C(=O)N[C@@H]2C(=O)N3[C@@H]2SC(C)(C)[C@@H]3C(=O)O)c2ccccc2)C(=O)C1=O (stereo not given in full)")
"condition met"
>>> qualitative_label("O=C(/C=C/c1c(C(=O)O)[nH]c2cc(Cl)cc(Cl)c12)Nc1ccccc1")
"condition not met"
>>> qualitative_label("CO[C@H](C(=O)[C@@H](O)[C@@H](C)O)[C@@H]1Cc2cc3cc(O[C@H]4C[C@@H](O[C@H]5C[C@@H](O)[C@H](O)[C@@H](C)O5)[C@@H](O)[C@@H](C)O4)c(C)c(O)c3c(O)c2C(=O)[C@H]1O[C@H]1C[C@@H](O[C@H]2C[C@@H](O[C@H]3C[C@](C)(O)[C@H](O)[C@@H](C)O3)[C@H](O)[C@@H](C)O2)[C@H](O)[C@@H](C)O1")
"condition not met"
>>> qualitative_label("CCOC(=O)[C@@H](CCc1ccccc1)N[C@@H](C)C(=O)N1CCC[C@H]1C(=O)O")
"condition not met"
>>> qualitative_label("CCCCC[C@H](CC(=O)NO)C(=O)N[C@H](C(=O)N1CCC[C@H]1CO)C(C)C")
"condition not met"
>>> qualitative_label("O=[N+]([O-])O[C@@H]1CO[C@H]2[C@@H]1OC[C@@H]2O")
"condition not met"
>>> qualitative_label("C[C@]12C=CC(=O)C=C1CCC1C2[C@@H](O)C[C@@]2(C)C1CC[C@]2(O)C(=O)COC(=O)CCC(=O)O (stereo not given in full)")
"condition met"
>>> qualitative_label("COc1cc([C@@H]2c3cc4c(cc3C(OC3O[C@@H]5COC(C)O[C@H]5[C@H](O)[C@H]3O)C3COC(=O)[C@@H]32)OCO4)cc(OC)c1O (stereo not given in full)")
"condition met"
>>> qualitative_label("CC(C)(CO)C(O)C(=O)NCCC(=O)NCCSSCCNC(=O)CCNC(=O)C(O)C(C)(C)CO (stereo not given)")
"condition not met"
>>> qualitative_label("COc1ccc2nc3cc(Cl)ccc3c(Nc3cc(CN4CCCC4)c(O)c(CN4CCCC4)c3)c2n1")
"condition not met"
>>> qualitative_label("C=C(NC(=O)C(=C)NC(=O)c1csc(C2=NC3c4csc(n4)C4NC(=O)c5csc(n5)C(C(C)(O)C(C)O)NC(=O)C5CSC(=N5)C(=CC)NC(=O)C(C(C)O)NC(=O)c5csc(n5)C3(CC2)NC(=O)C(C)NC(=O)C(=C)NC(=O)C(C)NC(=O)C(C(C)CC)NC2C=Cc3c(C(C)O)cc(nc3C2O)C(=O)OC4C)n1)C(N)=O (stereo not given)")
"condition met"
>>> qualitative_label("CCC(=O)O[C@H](CC(=O)O)C[N+](C)(C)C")
"condition not met"
>>> qualitative_label("CC1(C)SC2C(NC(=O)Cc3ccccc3)C(=O)N2C1C(=O)O (stereo not given)")
"condition not met"
>>> qualitative_label("CN1C2CC[C@@H]1CC(OC(=O)[C@H](CO)c1ccccc1)C2 (stereo not given in full)")
"condition met"
>>> qualitative_label("C[C@]12C=CC(=O)C=C1CCC1C2[C@@H](O)C[C@@]2(C)C1CC[C@]2(O)C(=O)COP(=O)(O)O (stereo not given in full)")
"condition met"

----------
# parasite load remaining values compiled below
- Protocol: liver-stage malaria parasite growth inhibition, primary screen, cell-based, HepG2, luciferase luminescence, HepG2 viability (AID 624349);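 note: 100% = mean of DMSO negative control wells on the same plate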
- Measurement parameters: P. berghei liver stage in HepG2, luciferase luminescence, concentration not given here; stronger effect = lower value
Readout name: parasite load remaining (%)

>>> experimental_result("CC1CC2C3CCC4=CC(=O)C=C[C@]4(C)[C@@]3(F)[C@@H](O)C[C@]2(C)[C@@]1(O)C(=O)CO (stereo partly drawn)")
123
>>> experimental_result("CC(C)(O/N=C(\\C(=O)N[C@@H]1C(=O)N2C(C(=O)[O-])=C(C[n+]3ccccc3)CSC12)c1csc(N)n1)C(=O)O (stereo partly drawn)")
57.9
>>> experimental_result("N#C/C(=C(/N)Sc1ccc(N)cc1)c1ccccc1C(F)(F)F")
62.2
>>> experimental_result("CC(C)C[C@H](NC(=O)[C@@H](O)[C@H](N)Cc1ccccc1)C(=O)O")
23.8
>>> experimental_result("O=C(O)C1CCCNC1 (stereo not drawn)")
89.7
>>> experimental_result("CC1c2cccc(O)c2C(O)=C2C(=O)[C@]3(O)C(O)=C(C(N)=O)C(=O)[C@@H](N(C)C)[C@@H]3C[C@@H]21 (stereo partly drawn)")
60.3
>>> experimental_result("C[C@@H]1CC2C3C[C@H](F)C4=CC(=O)C=C[C@]4(C)[C@@]3(F)[C@@H](O)C[C@]2(C)[C@@]1(O)C(=O)CO (stereo partly drawn)")
21.3
>>> experimental_result("CC12CCC(=O)C=C1CCC1C2[C@@H](O)CC2(C)C1CC[C@]2(O)C(=O)COP(=O)(O)O (stereo partly drawn)")
75.6
>>> experimental_result("Nc1nc(Cl)nc2c1ncn2[C@@H]1O[C@H](CO)[C@@H](O)[C@H]1O")
214
>>> experimental_result("N[C@@H](C(=O)N[C@@H]1C(=O)N2C(C(=O)O)=C(CSc3cn[nH]n3)CS[C@H]12)c1ccc(O)cc1 (tested in a mixture with another compound)")
100
>>> experimental_result("CCC(C)(C)N=C(NC#N)Nc1cccnc1")
49.6
>>> experimental_result("O=C(O)COCCN1CCN([C@H](c2ccccc2)c2ccc(Cl)cc2)CC1")
91.6
>>> experimental_result("O=C(/C=C/c1ccc(O)c(O)c1)OC(Cc1ccc(O)c(O)c1)C(=O)O (stereo not drawn)")
107
>>> experimental_result("COc1cc(C[C@@H](CO)[C@H](CO)Cc2ccc(O)c(OC)c2)ccc1O")
74.6
>>> experimental_result("Nc1ncnc2nc(-c3ccc(N4CCOCC4)nc3)cc(-c3cccc(Br)c3)c12")
57.8
>>> experimental_result("CCC[C@@H]1C[C@@H](C(=O)N[C@H]([C@@H](C)O)[C@H]2O[C@H](SC)[C@H](O)[C@@H](O)C2O)N(C)C1 (stereo partly drawn)")
97.8
>>> experimental_result("CC(=O)C1(O)CCC2C3CC(C)C4=CC(=O)C=CC4(C)C3(F)C(O)CC21C (stereo not drawn)")
94.8
>>> experimental_result("COc1cc(CNC(=O)CCCC/C=C\\C(C)C)ccc1O")
83.7
>>> experimental_result("C=CC[C@@H]1/C=C(\\C)C[C@H](C)C[C@H](OC)[C@H]2O[C@@](O)(C(=O)C(=O)N3CCCC[C@H]3C(=O)O[C@H](/C(C)=C/[C@@H]3CC[C@@H](O)[C@H](OC)C3)[C@H](C)[C@@H](O)CC1=O)[C@H](C)C[C@@H]2OC")
58.3
>>> experimental_result("CNCC[C@@H](Oc1ccccc1)c1ccccc1")
48
>>> experimental_result("CS(=O)(=O)c1ccc(-c2cc(Br)sc2-c2ccc(F)cc2)cc1")
10.4
>>> experimental_result("CC(=O)NCCCCCCNC(C)=O")
100
>>> experimental_result("CC1c2cccc(O)c2C(O)=C2C(=O)C3(O)C(O)=C(C(N)=O)C(=O)C(N(C)C)C3C(O)C21 (stereo not drawn)")
45.4
>>> experimental_result("CO[C@H]1C=CO[C@@]2(C)Oc3c(C)c(O)c4c(O)c(c5c(c4c3C2=O)NC2(CCN(CC(C)C)CC2)N=5)=NC(=O)C(C)=CC=C[C@H](C)[C@H](O)[C@@H](C)[C@@H](O)[C@@H](C)[C@H](OC(C)=O)[C@@H]1C")
46.3
>>> experimental_result("Brc1c(Br)c(Br)c2n[nH]nc2c1Br")
65.4
>>> experimental_result("O=C(O)c1ccccc1")
29.9
>>> experimental_result("C[C@]12CCC3c4ccc(OS(=O)(=O)O)cc4CCC3C1CCC2=O (stereo partly drawn)")
45.1
>>> experimental_result("CC[C@]1(O)CC2CN(CCc3c([nH]c4ccccc34)[C@@](C(=O)OC)(c3cc4c(cc3OC)N(C)[C@H]3[C@@](O)(C(N)=O)[C@H](O)[C@]5(CC)C=CCN6CC[C@]43[C@@H]65)C2)C1 (stereo partly drawn)")
65.1
>>> experimental_result("Nc1ncnc2n[nH]c(Nc3ccc(F)cc3)c12")
34.8
>>> experimental_result("C/C=C(/C)C(=O)O[C@@H]1[C@H](OC(C)=O)[C@@]2(CO)C(CC1(C)C)C1=CCC3[C@@]4(C)CC[C@H](O[C@@H]5O[C@H](C(=O)O)[C@@H](O[C@@H]6O[C@H](CO)[C@@H](O)[C@H](O)[C@H]6O)[C@H](O)[C@H]5O[C@@H]5O[C@H](CO)[C@@H](O)[C@H](O)[C@H]5O)[C@](C)(CO)C4CC[C@@]3(C)[C@]1(C)C[C@H]2O (stereo partly drawn)")
66
>>> experimental_result("COc1cc(NS(C)(=O)=O)ccc1Cc1c2ccccc2nc2ccccc12")
41.6
>>> experimental_result("N[C@@H](CC(=O)N1CCn2c(nnc2C(F)(F)F)C1)Cc1cc(F)c(F)cc1F")
48.9
>>> experimental_result("CC(=O)Oc1ccc2c(c1)CCC1C2CC[C@@]2(C)C1CC[C@@H]2OC(C)=O (stereo partly drawn)")
102
